Measured values drawn from ChEMBL document CHEMBL2086255 for this set.

Assay: Intrinsic clearance in mouse liver microsomes at 1 uM
Format: ADME, Microsome
Conditions: read-out: CLH
# CLint scaled at 1 µM per record follows
Give just the number in mL/min/kg; leave the unit off.

In [3]: df
Out[3]:
                                        mol          u  obs_value
0  C=CC(=O)Nc1cccc(S(=O)(=O)N2CCN(C(=O)OCc3ccccc3)CC2)c1  mL/min/kg       2460

Looking up C=CC(=O)Nc1ccc(S(=O)(=O)N2CCN(C(=O)C3CCCC3)CC2)cc1 , I found its CLint scaled at 1 µM recorded as 229

Looking up C=CC(=O)Nc1ccc(S(=O)(=O)N2CCN(C(=O)C3CC3)CC2)cc1 , I found its CLint scaled at 1 µM recorded as 120

Looking up C=CC(=O)Nc1ccc(S(=O)(=O)N2CCN(C(=O)C34CC5CC(CC(C5)C3)C4)CC2)cc1 , I found its CLint scaled at 1 µM recorded as 3200
